System: HT29 colon
Assay: NCI tumour cell line growth inhibition, 48 h
measured.property: TGI

{"compound": "Cn1cc(NC(=O)Nc2cc(C(=O)Nc3cc(C(=O)Nc4ccc5cc(S(=O)(=O)O)cc(S(=O)(=O)O)c5c4)n(C)c3)n(C)c2)cc1C(=O)Nc1cc(C(=O)Nc2ccc3cc(S(=O)(=O)O)cc(S(=O)(=O)O)c3c2)n(C)c1", "TGI": "> 100 µM"}
{"compound": "CCOc1ccc(N(CC(=O)N2CC(=O)Nc3cc(C)c(C)cc32)C(C)=O)cc1", "TGI": "> 100 µM"}
{"compound": "COCN1C(=O)[C@@H]2C[C@@H](O)CN2C(=O)c2ccccc21", "TGI": "> 100 µM"}
{"compound": "O=S(=O)(CC(Cl)c1ccccc1)c1nc2ccccc2s1 (stereo not given)", "TGI": "21.2 µM"}

Qu. Which TGI value is on record for `O=C1c2cc3c(cc2CC12Cc1ccccc1C2)CCC3` ?
Ans. 50.5 µM

###

Test system: CCRF-CEM leukemia
Test: NCI tumour cell line growth inhibition, 48 h
measured.property: TGI

Examples from the recorded data:
{"compound": "CC(=O)NC(CCCCNCc1ccccc1)C(=O)NCc1ccccc1 (stereo unspecified)", "TGI": "> 100 µM"}
{"compound": "CCS1=C2C(=O)CC(C)(C)CC2=Nc2ccccc21 (stereo unspecified)", "TGI": "> 100 µM"}
{"compound": "COc1ccc(/C=C/c2onc3c(=O)n(C)nc(-c4ccccc4)c23)cc1", "TGI": "> 100 µM"}
{"compound": "O=C1/C(=C/c2ccccc2Cl)COc2ccc(Br)cc21", "TGI": "> 100 µM"}
{"compound": "COc1ccc2c(=O)c3ccoc3[nH]c2c1", "TGI": "> 100 µM"}
{"compound": "CCOc1ccc(N(CC(=O)N2CC(=O)Nc3cc(C)c(C)cc32)C(C)=O)cc1", "TGI": "> 100 µM"}
{"compound": "Oc1ccc(Br)cc1C=Nc1c(NC2CCCCC2)oc2ccc(Br)cc12", "TGI": "20.2 µM"}
{"compound": "Oc1ccc(N=Nc2ccc(Br)cc2)c(O)c1", "TGI": "4.82 µM"}
{"compound": "Cc1cc(C)n(-c2nc(-n3nc(C)cc3C)nc(-n3nc(C)cc3C)n2)n1", "TGI": "> 100 µM"}
{"compound": "C[C@]12CC[C@H]3[C@@H](CC=C4C[C@@H](O)CC[C@@]43C)[C@@H]1C/C(=C\\c1ccncc1)[C@@H]2O", "TGI": "50.8 µM"}

Qu. TGI for COc1cccc2c1C(=O)c1c(O)c3c(c(O)c1C2=O)C[C@](O)(C(=O)CO)C[C@H]3O[C@@H]1C[C@@H](NC(=O)CCCN(C)C2(c3ccc(F)cc3)CC3CCC2C3)[C@H](O)[C@@H](C)O1 (stereo partly specified) ?
Ans. 3.29 µM

Qu. Returns the measured TGI for the input compound. Input: `CN(C)c1ccc(N=C2N=C(Nc3ccccc3)C(=Nc3ccccc3)S2)cc1`
Ans. > 100 µM

Qu. Name the reported TGI value associated with the compound `COc1cc(/C=N/NC(=O)c2c(Cl)c(Cl)c(Cl)c(Cl)c2-c2nc3ccc(C(=O)c4ccccc4)cc3[nH]2)ccc1O`
Ans. 81.6 µM

Qu. Would you mind telling me what TGI value was observed for `S=C(NCCc1ccccn1)N/N=C(\c1ccccc1)c1ccccn1` ?
Ans. > 100 µM

Qu. # TGI lookup, item `N#Cc1c(N)nc2c(c1-c1ccc(Cl)cc1)COc1ccc(F)cc1-2`
Ans. > 100 µM

Qu. # input compound: `Cc1[nH]c2ncn3[nH]c(=S)nc3c2c1Cc1ccccc1` ; wanted: its TGI
Ans. > 100 µM
